The origin of these recorded values is PubChem BioAssay (Tox21).

# assayOverview: A CellTox Green Cytotoxicity Assay to monitor cytotoxicity in HepG2 cells - 24 hour (AID 1224878); note: nearly all actives have a fitted effect of over 45% in size; for Cytotoxicity: % is set by controls: 0 for no effect and ±100 for the full control effect
# testParameters: CellTox Green fluorescence; series mostly up to 76.8 µM
Inconclusive results are not listed. Calls of active or inactive are those of the source. Calls come from the whole dose curve; as a rule, active = well fitted activation curve with a large enough effect in the repeat runs; inconclusive = weak or mixed curves; inactive = flat fitted curve, though single readings scatter.
API: response.call in yes (1) = active, no (0) = inactive

compound	discreteLabel
COc1ccccc1/C=C/C=O	no (0)

Prompt: Answer briefly: the call reported for `O=[N+]([O-])c1ccc2c(c1)Cc1ccccc1-2` in this assay.
Completion: no (0)

Prompt: Hi, sorry to bother you, what did the test record for CC(C)=CCCC(C)CCO (configuration not stated) ?
Completion: no (0)

Prompt: Test call, this compound: `O=c1oc(=O)c2cc3c(=O)oc(=O)c3cc12`
Completion: no (0)

Prompt: # lookup: test call for `CN(C)C(=N)N=C(N)N`
Completion: no (0)

Prompt: Look up the recorded call for CC(C(=O)O)c1cccc(C(=O)c2ccccc2)c1 (configuration not stated) in this test.
Completion: no (0)

Prompt: For `c1ccc2sc(SSN3CCOCC3)nc2c1` , what call appears in the results of this test?
Completion: yes (1)

---

# assayOverview: qHTS assay to identify small molecule antagonists of the estrogen receptor beta (ER-beta) signaling pathway - cell viability counter screen (AID 1259382);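 note: HEK293T cells carrying ER-beta-UAS-bla reporter stimulated with estradiol; % is set by controls: 0 for no effect and ±100 for the full control effect; nearly all actives have a fitted effect of over 55% in size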
# testParameters: ER-beta-UAS-bla HEK293T viability, CellTiter-Glo luminescence, 16 h; series mostly up to 92.4 µM
Results filed as inconclusive are left out. Calls of active or inactive are those of the source. The call rests on the fitted dose curve; in most records, active means well fitted cell-killing curve with a large enough effect in the repeat runs; inconclusive means weak or mixed curves; inactive means flat fitted curve, though single readings scatter.
// allowed return values: active, inactive

Use the examples below as a reference point.
compound	discreteLabel
CC(C(=O)O)c1cccc(C(=O)c2ccccc2)c1 (configuration not stated)	inactive
O=C(OCc1ccccc1)c1ccccc1O	inactive
O=C(Nc1ccc(Cl)cc1)Nc1ccc(Cl)c(Cl)c1	inactive
c1ccc2c(c1)c1cccc3ccc4cccc2c4c31	inactive
c1ccc2cc(Nc3ccc(Nc4ccc5ccccc5c4)cc3)ccc2c1	inactive

Shifting focus to the compound that follows.
Prompt: Recorded test call requested for `OCCO`
Completion: inactive

---

# assayOverview: qHTS assay for identifying genotoxic compounds that show differential cytotoxicity against isogenic chicken DT40 cell lines with known DNA damage response pathways - Rev3 mutant cell line (AID 743014); note: nearly all actives have a fitted effect of over 55% in size
# testParameters: chicken DT40 Rev3-/- viability, CellTiter-Glo, 40 h; series mostly up to 68.4 µM
Inconclusive results are not listed. Active and inactive are the calls of the source. The call rests on the fitted dose curve; in most records, active means well fitted cell-killing curve with a large enough effect in the repeat runs; inconclusive means weak or mixed curves, or effect the other way; inactive means no such curve, though single readings can be large or run the other way.
Output constraint: value belongs to y (active), n (inactive)

Known results for compounds:
compound	discreteLabel
C=C(C)C1CC=C(C)CC1 (stereo not drawn)	n
Nc1ccc(Cl)cc1Cl	n

Prompt: // outcome(item) with item = `O=C1c2cccc(O)c2C(=O)c2c(O)cccc21`
Completion: n

Prompt: Lab log entry: CC(C(=O)O)c1cccc(C(=O)c2ccccc2)c1 (stereo not drawn) — outcome as called in the assay?
Completion: n

Prompt: Hi team, can someone confirm the assay call for `COc1c(Cl)c(Cl)c(Cl)c(Cl)c1Cl` ?
Completion: n

Prompt: Which outcome was assigned to `C=C(C)C(=O)OCCOC(=O)C(=C)C` in this test?
Completion: n

Prompt: # outcome recorded in this test, key = `c1cc(-c2ccncc2)ccn1`
Completion: n

Prompt: What did this assay record as the result for `c1ccc2cc(Nc3ccc(Nc4ccc5ccccc5c4)cc3)ccc2c1` ?
Completion: n

Prompt: What outcome does the record of this test show for `CCCCCCCCCC(=O)OC` ?
Completion: n

Prompt: Returns: the outcome recorded for `C[C@]12CC[C@H]3[C@@H](CCC4=CC(=O)CC[C@@]43C)[C@@H]1CC[C@@H]2C(=O)CO` in this assay.
Completion: y

Prompt: Record request — test call for `COC(=O)c1ccccc1`
Completion: n

Prompt: Which outcome was assigned to `O=[N+]([O-])c1ccc2c(c1)Cc1ccccc1-2` in this test?
Completion: n

Prompt: Which outcome was entered for the compound `Cc1c(C(N)=O)cc([N+](=O)[O-])cc1[N+](=O)[O-]` in this test?
Completion: n

---

# systemUnderTest: Progesterone receptor (Homo sapiens) (UniProt P06401)
# Sequence (P06401 whole entry, looked up): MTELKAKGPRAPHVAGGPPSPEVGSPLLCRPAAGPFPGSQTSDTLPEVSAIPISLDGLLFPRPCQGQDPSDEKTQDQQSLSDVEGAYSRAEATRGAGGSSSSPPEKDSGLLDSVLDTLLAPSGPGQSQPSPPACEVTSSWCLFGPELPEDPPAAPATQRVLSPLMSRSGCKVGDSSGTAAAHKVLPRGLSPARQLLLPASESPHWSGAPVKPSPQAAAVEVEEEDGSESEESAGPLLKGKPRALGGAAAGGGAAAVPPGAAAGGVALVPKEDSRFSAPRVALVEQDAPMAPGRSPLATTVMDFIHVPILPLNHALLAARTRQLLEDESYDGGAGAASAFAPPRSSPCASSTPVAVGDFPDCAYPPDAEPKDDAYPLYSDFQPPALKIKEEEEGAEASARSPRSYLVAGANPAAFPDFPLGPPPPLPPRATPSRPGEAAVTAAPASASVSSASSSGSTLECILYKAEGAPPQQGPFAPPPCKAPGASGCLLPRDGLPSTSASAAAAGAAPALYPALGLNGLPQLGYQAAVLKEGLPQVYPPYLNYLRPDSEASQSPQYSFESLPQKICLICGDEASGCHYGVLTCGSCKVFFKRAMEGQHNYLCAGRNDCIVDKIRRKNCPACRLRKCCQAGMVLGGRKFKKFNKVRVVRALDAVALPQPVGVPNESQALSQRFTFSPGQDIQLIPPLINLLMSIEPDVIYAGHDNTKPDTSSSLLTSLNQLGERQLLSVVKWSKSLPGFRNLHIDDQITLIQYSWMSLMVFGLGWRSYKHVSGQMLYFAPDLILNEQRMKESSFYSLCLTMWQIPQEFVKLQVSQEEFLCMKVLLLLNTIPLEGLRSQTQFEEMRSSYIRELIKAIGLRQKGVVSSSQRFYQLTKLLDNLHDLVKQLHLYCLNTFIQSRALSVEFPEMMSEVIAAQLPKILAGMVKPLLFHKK
# assayOverview: qHTS assay to identify small molecule antagonists of the progesterone receptor (PR) signaling pathway (AID 1346795); note: potency is the fitted concentration of half-maximal effect
# testParameters: PR-UAS-bla HEK293T, beta-lactamase FRET ratio, 16 h; series mostly up to 92.4 µM
# Text: National Center for Advancing Translational Sciences [NCATS] NIH Chemical Genomics Center [NCGC] U.S. Environmental Protection Agency [EPA] National Institutes of Environmental Health Sciences [NIEHS] National Toxicology Program [NTP] U.S. Food and Drug Administration [FDA] Progesterone receptor (PR), a nuclear hormone receptor, plays an important role in development, metabolic homeostasis and reproduction. […]
Results filed as inconclusive are left out. The source made the active and inactive calls. Calls follow the shape of the dose curve; as a rule, active = well fitted inhibition curve with a large enough effect in the signal ratio in the repeat runs (not every such curve was filed as active); inconclusive = weak or mixed curves; inactive = flat fitted curve, though single readings scatter; the % refers to the signal ratio.
readoutKind: Potency

Some solved entries appear below for comparison.
molecule	Potency
CCC(C)(O)CCCC(C)C (stereo not drawn)	inactive
CC(=O)c1ccccn1	inactive
O=C(COc1ccc(Cl)cc1)N1CCN(Cc2ccc3c(c2)OCO3)CC1	54.5 µM (active)
CC(C)OC=O	inactive

Prompt: Given the molecule `O=C1OC2(c3cc(Br)c(O)c(Br)c3Oc3c2cc(Br)c(O)c3Br)c2c(Cl)c(Cl)c(Cl)c(Cl)c21` , what is its reported Potency?
Completion: inactive

Prompt: # Potency lookup, item `O=C1c2cccc(O)c2C(=O)c2c(O)cccc21`
Completion: inactive

---

# assayOverview: qHTS assay to identify small molecule HDAC inhibitors (AID 1259364);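 note: wild-type HCT-116 cells with endogenous class I/II HDAC activity; top concentration of the series differs between compounds; % is set by controls: 0 for no effect and ±100 for the full control effect; nearly all actives have a fitted effect of over 45% in size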
# testParameters: HCT-116 HDAC-Glo I/II luminescence, 2 h; series mostly up to 92.4 µM
Records with an inconclusive call do not appear. Active and inactive are the calls of the source. Calls follow the shape of the dose curve; as a rule, active = well fitted inhibition curve with a large enough effect in the repeat runs; inconclusive = weak or mixed curves; inactive = flat fitted curve, though single readings scatter.
Classes to choose from: active, inactive

Answered examples (5):
compound	discreteLabel
CCCCCCCCCCCO	inactive
CC(C(=O)O)c1cccc(C(=O)c2ccccc2)c1 (stereo not given)	inactive
NC=O	inactive
c1ccc2c(c1)Oc1ccccc1S2	inactive
O=Cc1ccccc1O	inactive

Prompt: // return assay outcome for `COc1c(Cl)c(Cl)c(Cl)c(Cl)c1Cl`
Completion: inactive

Prompt: Write down the call the test reported for this compound. Item: CCCCC(CC)COC(=O)c1ccc(N(C)C)cc1 (stereo not given)
Completion: inactive

---

# systemUnderTest: Nuclear receptor subfamily 1 group I member 2 (Homo sapiens) (UniProt O75469)
# assayOverview: Human pregnane X receptor (PXR) activation by small molecules, qHTS assay (AID 1346985); note: nearly all actives have a fitted effect of over 40% in size; for activation: % is set by controls: 0 for no effect and ±100 for the full control effect
# testParameters: DPX-2 HepG2 CYP3A4-luciferase, 24 h; series mostly up to 38.3 µM
Inconclusive results are not listed. Active and inactive are the calls of the source. Calls come from the whole dose curve; as a rule, active = well fitted activation curve with a large enough effect in the repeat runs; inconclusive = weak or mixed curves; inactive = flat fitted curve, though single readings scatter.
Give one outcome, nothing more. List: 1 = active, 0 = inactive

chemSmiles	discreteLabel
Cc1cc2nc3c(=O)[nH]c(=O)nc-3n(C[C@H](O)[C@H](O)[C@H](O)CO)c2cc1C	0
COc1cccc2c1C(=O)c1c(O)c3c(c(O)c1C2=O)C[C@@](O)(C(=O)CO)C[C@@H]3O[C@H]1C[C@H](N)[C@H](O)[C@H](C)O1	0
CC(C)(C)NC(=O)[C@H]1CC[C@H]2[C@@H]3CC[C@H]4NC(=O)C=C[C@]4(C)[C@H]3CC[C@]12C	0

Prompt: Would you mind telling me which call this test gave `C[Si](C)(C)O[Si](C)(C)C` ?
Completion: 0

Prompt: Called result for `COc1cc([C@@H]2c3cc4c(cc3[C@H](O)[C@H]3COC(=O)[C@H]23)OCO4)cc(OC)c1OC`
Completion: 1

Prompt: Each compound tested received a call. Report the one for `O=C(COc1ccc(Cl)cc1)N1CCN(Cc2ccc3c(c2)OCO3)CC1` .
Completion: 0

Prompt: For this compound, state the assay outcome: `CN1C(C(=O)Nc2ccccn2)=C(O)c2ccccc2S1(=O)=O`
Completion: 0

Prompt: // return assay outcome for `Cc1[nH]c(=O)c(C#N)cc1-c1ccncc1`
Completion: 0

Prompt: Hi, sorry to bother you, what did the test record for `Nc1ncn([C@@H]2O[C@H](CO)[C@@H](O)[C@H]2O)c(=O)n1` ?
Completion: 0

---

# assayOverview: qHTS assay to identify small molecule agonists of the vitamin D receptor (VDR) signaling pathway - cell viability counter screen (AID 743224); note: nearly all actives have a fitted effect of over 50% in size
# testParameters: VDR-bla HEK293T viability, CellTiter-Glo luminescence, 16 h; series mostly up to 62.6 µM
Records with an inconclusive call do not appear. Active and inactive are the calls of the source. Calls come from the whole dose curve; as a rule, active = well fitted cell-killing curve with a large enough effect in the repeat runs; inconclusive = weak or mixed curves, or effect the other way; inactive = no such curve, though single readings can be large or run the other way.
Pick one: active, inactive

Examples from the recorded data:
compound	discreteLabel
COc1ccc(OC)c(C(O)CNC(=O)CN)c1 (stereo not given)	inactive
CC(=O)C1(C)CC2=C(CCCC2(C)C)CC1C (stereo not given)	inactive
Cc1c(OCC(F)(F)F)ccnc1CS(=O)c1nc2ccccc2[nH]1 (stereo not given)	inactive
COC(=O)Nc1nc2ccc(S(=O)c3ccccc3)cc2[nH]1 (stereo not given)	inactive
CCC(C)OC(=O)c1ccc(O)cc1 (stereo not given)	inactive

Prompt: Fill in: this test's call for `C[Si](C)(C)O[Si](C)(C)C` is ___
Completion: inactive

Prompt: Write down the call the test reported for this compound. Item: `c1ccc(Nc2ccccc2)cc1`
Completion: inactive

Prompt: Dear colleague, could you share the recorded outcome for `CCCCNS(=O)(=O)c1ccccc1` when you have a moment?
Completion: inactive

Prompt: Outcome? `CC(=O)Oc1ccccc1C(=O)Nc1ncc([N+](=O)[O-])s1`
Completion: active

Prompt: Would you mind telling me which call this test gave `NC=O` ?
Completion: inactive
